# studyTarget: Cytochrome P450 2C19 (Homo sapiens, UniProt P33261)
# Sequence (P33261 whole entry): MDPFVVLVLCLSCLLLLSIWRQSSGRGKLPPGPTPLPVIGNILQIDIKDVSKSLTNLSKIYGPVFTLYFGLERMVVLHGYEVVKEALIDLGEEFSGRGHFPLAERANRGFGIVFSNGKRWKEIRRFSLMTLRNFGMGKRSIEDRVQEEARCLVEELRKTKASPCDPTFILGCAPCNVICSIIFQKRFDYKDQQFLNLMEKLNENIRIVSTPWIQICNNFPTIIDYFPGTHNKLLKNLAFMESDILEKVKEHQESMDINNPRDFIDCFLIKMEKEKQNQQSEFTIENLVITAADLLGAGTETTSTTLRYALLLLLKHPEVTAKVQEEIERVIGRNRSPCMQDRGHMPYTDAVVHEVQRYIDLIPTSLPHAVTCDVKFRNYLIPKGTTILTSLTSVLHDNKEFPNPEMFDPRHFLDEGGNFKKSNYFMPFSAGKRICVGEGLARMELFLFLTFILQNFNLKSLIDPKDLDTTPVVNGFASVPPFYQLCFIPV
measurementKind: IC50 (µM)
Number in µM, nothing else.

Kindly note the recorded IC50 for CC(C)COc1ccc(-c2cn(C)c3cc(C(=O)NS(C)(=O)=O)c(F)cc23)cn1 , which is 4

====

# procedureText: Permeability of the compound at pH 7.4 by PAMPA
# Type: ADME
# details: read-out: permeability
Use 20 ×10⁻⁶ cm/s as the dividing line for Papp, with the line itself on the Satisfied side and lower values as Not satisfied.

Examples with answers:
INSERT INTO results (smilesstructure, group) VALUES
  ('Cn1cc(-c2ccc(C(F)(F)F)cc2)c2ccc(C(=O)NS(C)(=O)=O)cc21', 'Not satisfied'),
  ('CC(C)COc1ccc(-c2cn(C)c3cc(C(=O)NS(C)(=O)=O)c(F)cc23)cn1', 'Not satisfied'),
  ('Cn1cc(-c2cnc(OCC3CC3)c(Cl)c2)c2ccc(C(=O)NS(=O)(=O)C3CC3)cc21', 'Satisfied'),
  ('Cn1cc(-c2ccc(C(F)(F)F)cc2)c2cc(F)c(C(=O)NS(C)(=O)=O)cc21', 'Not satisfied');

Okay, next one:
### Prompt Check if Papp >= 20 ×10⁻⁶ cm/s (inclusive). Item: CC(C)COc1ccc(-c2cn(C)c3cc(C(=O)NS(=O)(=O)C4CC4)c(F)cc23)cn1
### Response Satisfied
